System: MCF-7
measurement.notes: Radius cell migration assay
Format: cell-based
stated.conditions: Homo sapiens, MCF7; 24 hours of treatment; 5 concentrations; three independent experiments; read-out: Migratory IC50 MCF-7
measured.metric: IC50 (nM)

[
  {
    "compound": "COc1cccc(C(=O)/C=C/c2ccc(N(CCCl)CCCl)cc2)c1 [Compound 14]",
    "target.or.system": "MCF-7",
    "recorded.number": 2440
  }
]

====

System: SK-BR-3
measurement.notes: Radius cell migration assay
Type: cell-based
stated.conditions: Homo sapiens, 24 hours of treatment, 5 concentrations, three independent experiments, read-out: Migratory IC50 SK-BR-3
measured.metric: IC50

[
  {
    "compound": "COc1cccc(C(=O)/C=C/c2ccc(N(CCCl)CCCl)cc2)c1 [Compound 14]",
    "target.or.system": "SK-BR-3",
    "measured.metric": "IC50",
    "result": "2.79 µM"
  }
]

====

Test system: MDA-MB-231
measurement.notes: Migration (wound healing) assay
Type: cell-based
stated.conditions: Homo sapiens, MDA-MB-231; 24 hours of treatment; 5 concentrations; two independent experiments; read-out: Migratory IC50 MDA-MB-231
measured.metric: IC50 (µM)

[
  {
    "compound": "CC(=O)O[C@H]1C(=O)[C@@]2(C)[C@H]([C@H](OC(=O)c3ccccc3)[C@]3(O)C[C@H](OC(=O)[C@H](O)[C@@H](NC(=O)c4ccccc4)c4ccccc4)C(C)=C1C3(C)C)[C@]1(OC(C)=O)CO[C@@H]1C[C@@H]2O [Paclitaxel, reference compound]",
    "target.or.system": "MDA-MB-231",
    "recorded.number": 2.01
  },
  {
    "compound": "COc1cccc(C(=O)/C=C/c2ccc(N3CCCC3)cc2)c1 [Compound 8]",
    "target.or.system": "MDA-MB-231",
    "recorded.number": 3
  },
  {
    "compound": "CSc1ccc(C(=O)/C=C/c2ccc(N3CCOCC3)cc2)cc1 [Compound 5]",
    "target.or.system": "MDA-MB-231",
    "recorded.number": 6.14
  },
  {
    "compound": "O=C(/C=C/c1ccc(N2CCCC2)cc1)c1ccc2c(c1)OCO2 [Compound 10]",
    "target.or.system": "MDA-MB-231",
    "recorded.number": 4.8
  }
]
